Values compiled from PubChem BioAssay AID2060888.

System: 695427-040-R-J1-PDC complex spheroid viability
assay.info: Anticancer human tumor 695427-040-R-J1-PDC patient-derived colon adenocarcinoma cell line growth inhibition [RAS]
measurement.setup: second compound 0.1 µM; first compound 10 µM; stronger effect = lower value
readout.label: viability, T/C

CC(C)NCC(C(=O)N1CCN(c2ncnc3c2C(C)CC3O)CC1)c1ccc(Cl)cc1 (stereo not given) + C#Cc1c(F)ccc2cc(O)cc(-c3ncc4c(N5CC6CCC(C5)N6)nc(OCC56CCCN5CC(F)C6)nc4c3F)c12 | 92.3%
C[C@@H](NC(=O)c1ncnc(N)c1Cl)c1ncc(C(=O)Nc2cc(C(F)(F)F)c(Cl)cn2)s1 + C=CC(=O)N1CCN(c2nc(OCC3CCCN3C)nc3c(F)c(-c4nc(N)cc(C)c4C(F)(F)F)c(Cl)cc23)C(C)C1 | 73.1%
CC(=O)OC12COC1CC(O)C1(C)C(=O)C(O)C3=C(C)C(OC(=O)C(O)C(NC(=O)OC(C)(C)C)c4ccccc4)CC(O)(C(OC(=O)c4ccccc4)C21)C3(C)C (stereo not given) + C#Cc1c(F)ccc2cc(O)cc(-c3ncc4c(N5CC6CCC(C5)N6)nc(OCC56CCCN5CC(F)C6)nc4c3F)c12 | 87.7%
CC(Nc1ccc2c(c1)OCCn1cc(N3C(=O)OCC3C(F)F)nc1-2)C(N)=O (stereo not given) + C=CC(=O)N1CCN(c2nc(OCC3CCCN3C)nc3c(F)c(-c4nc(N)cc(C)c4C(F)(F)F)c(Cl)cc23)C(C)C1 | 43.3%

Now for another entry.
**Q:** Under 695427-040-R-J1-PDC complex spheroid viability, report viability, T/C for Cc1nc(N2CCC3(CC2)COC(C)C3N)c(CO)nc1Sc1ccnc(N)c1Cl (stereo not given) + C#Cc1c(F)ccc2cc(O)cc(-c3ncc4c(N5CC6CCC(C5)N6)nc(OCC56CCCN5CC(F)C6)nc4c3F)c12
**A:** 51.9%

====

Tested on: 695427-040-R-J1-PDC complex spheroid viability
assay.info: Anticancer human tumor 695427-040-R-J1-PDC cell line growth inhibition [RAS];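 note: viability read after seven days of drug exposure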
measurement.setup: curve of first compound; second compound 0.00949 µM
# IC50 listing for each entry below

The examples below pair each entry with its known result.
CCC(CC)c1cc(NC2CCC(N)C2)n2nccc2n1 (stereo not drawn) + CCn1c(-c2cccnc2C(C)OC)c2c3cc(ccc31)N1CCOC(CC(NC(=O)C(C(C)C)N(C)C(=O)C3(F)CCN(C(=O)C#CC(C)(C)N(C)C)CC3)C(=O)N3CCCC(N3)C(=O)OCC(C)(C)C2)C1 | 1800 nM
NC1c2ccccc2OC12CCN(c1cnc3c(N4CCCc5ncccc54)n[nH]c3n1)CC2 (stereo not drawn) + CCn1c(-c2cc(N3CCN(C)CC3)cnc2C(C)OC)c2c3cc(ccc31)-c1csc(n1)CC(NC(=O)C1CC1C)C(=O)N1CCCC(N1)C(=O)OCC(C)(C)C2 | 72 nM
CC(Nc1ccc2c(c1)OCCn1cc(N3C(=O)OCC3C(F)F)nc1-2)C(N)=O (stereo not drawn) + CCn1c(-c2cccnc2C(C)OC)c2c3cc(ccc31)N1CCOC(CC(NC(=O)C(C(C)C)N(C)C(=O)C3(F)CCN(C(=O)C#CC(C)(C)N(C)C)CC3)C(=O)N3CCCC(N3)C(=O)OCC(C)(C)C2)C1 | > 10000 nM

**Q:** Item C=CC(=O)Nc1cc(Nc2nccc(-c3cn(C)c4ccccc34)n2)c(OC)cc1N(C)CCN(C)C + CCn1c(-c2cccnc2C(C)OC)c2c3cc(ccc31)N1CCOC(CC(NC(=O)C(C(C)C)N(C)C(=O)C3(F)CCN(C(=O)C#CC(C)(C)N(C)C)CC3)C(=O)N3CCCC(N3)C(=O)OCC(C)(C)C2)C1 : provide IC50
**A:** 453 nM

**Q:** Supply recorded IC50 for CCN1CCN(Cc2ccc(Nc3ncc(F)c(-c4cc(F)c5nc(C)n(C(C)C)c5c4)n3)nc2)CC1 + CCn1c(-c2cc(N3CCN(C)CC3)cnc2C(C)OC)c2c3cc(ccc31)-c1csc(n1)CC(NC(=O)C1CC1C)C(=O)N1CCCC(N1)C(=O)OCC(C)(C)C2 here.
**A:** > 1000 nM

**Q:** Given CC1(O)CCCC1n1c(=O)c(C(F)F)cc2cnc(NC3CCN(S(C)(=O)=O)CC3)nc21 (stereo not drawn) + CCn1c(-c2cc(N3CCN(C)CC3)cnc2C(C)OC)c2c3cc(ccc31)-c1csc(n1)CC(NC(=O)C1CC1C)C(=O)N1CCCC(N1)C(=O)OCC(C)(C)C2 , respond with its IC50.
**A:** > 10000 nM

**Q:** Dear colleague, please send me the reported IC50 for Nc1ccn(C2OC(CO)C(O)C2(F)F)c(=O)n1 (stereo not drawn) + CCn1c(-c2cccnc2C(C)OC)c2c3cc(ccc31)N1CCOC(CC(NC(=O)C(C(C)C)N(C)C(=O)C3(F)CCN(C(=O)C#CC(C)(C)N(C)C)CC3)C(=O)N3CCCC(N3)C(=O)OCC(C)(C)C2)C1 when you can.
**A:** > 1000 nM

**Q:** Please look at this molecule and report its IC50: Cc1nc(N2CCC3(CC2)COC(C)C3N)c(CO)nc1Sc1ccnc(N)c1Cl (stereo not drawn) + CCn1c(-c2cccnc2C(C)OC)c2c3cc(ccc31)N1CCOC(CC(NC(=O)C(C(C)C)N(C)C(=O)C3(F)CCN(C(=O)C#CC(C)(C)N(C)C)CC3)C(=O)N3CCCC(N3)C(=O)OCC(C)(C)C2)C1
**A:** > 10000 nM
